Source of measurements: ChEMBL document CHEMBL5724696

Task for the reader: assign each of the following compounds its reported autophagy induction.
Tested on: U2OS
Assay: Here: values are normalized to the negative (DMSO; defined as 0% autophagy induction) and positive (250nM Torin1; mTOR inhibitor; defined as maximal inducer of autophagy = 100%) control compounds and represented as % of autophagy induction. […] The impact of autophagy induction on cells is complex and depends on the affected target. As such, the magnitude of a phenotype may not be equally mirrored in the %-value of autophagy induction and vice versa. The dynamics of the induction may indicate the mode of activation: e.g. activation via phosphorylation or a signaling cascade may occur fast, while activation via transcription factors may take considerably longer. […] Of note, treatment concentrations may be sub-optimal for specific compounds, leading to false negative annotations.
Assay type: functional, Homo sapiens
Settings: Compound Concentration 0.5 uM, Timepoint 24 hours, Culturing Media DMEM, 1 % Penicillin/Streptomycin, 10% Fetal bovin serum Add-On: No, Screening Media Control DMEM, Screening Media Samples DMEM

// autophagy induction lookup, key: O=C(O)CC1CCC2(CC1)CCN(c1cc(OC(F)(F)F)ccc1Cl)CC2 1.231%

Further, for COc1ccc(S(=O)(=O)N2c3ccc(Cl)cc3[C@](O)(c3ccccc3Cl)[C@@H]2C(=O)N2CCC[C@H]2C(N)=O)cc1OC [RELCOVAPTAN] ? -3.182%

What do you get for CCCCN(CC)c1nc(C)nc2c1c(C)cn2-c1c(C)cc(C)cc1C.Cl ? -1.508%

Also, COc1ccc(NS(=O)(=O)c2sc3ccc(Cl)cc3c2C)cc1N1CCNCC1.Cl please. -0.6318%

Repeat for the following compound: CCCCN(CCCC)C(=O)CN1C[C@@H](c2ccc3c(c2)OCO3)[C@H](C(=O)O)[C@H]1c1ccc(OC)cc1 -1.039%

Field entry: Cc1c(C2=CCN(C(=O)N(C)C(C)C)CC2)nnn1-c1cccnc1F 0.05909%

Same lookup for CSc1ccc(C(=O)N[C@@H]2CCCC[C@@H]2NC(=O)CNC(=O)c2cc(C(F)(F)F)ccc2NC(=O)NC(C)C)cc1 , please. -1.673%

Next compound up: Cl.Cl.Cl.c1ccc(N2CCN(Cc3nc4ccccc4[nH]3)CC2)nc1 -1.19%

Try this compound next: CCCNS(=O)(=O)Nc1ncnc(OCCOc2ncc(Br)cn2)c1-c1ccc(Br)cc1 -4.032%

* * *

Test system: U2OS
Experiment: Here: values are normalized to the negative (DMSO; defined as 0% autophagy induction) and positive (250nM Torin1; mTOR inhibitor; defined as maximal inducer of autophagy = 100%) control compounds and represented as % of autophagy induction. […] The impact of autophagy induction on cells is complex and depends on the affected target. As such, the magnitude of a phenotype may not be equally mirrored in the %-value of autophagy induction and vice versa. The dynamics of the induction may indicate the mode of activation: e.g. activation via phosphorylation or a signaling cascade may occur fast, while activation via transcription factors may take considerably longer. […] Of note, treatment concentrations may be sub-optimal for specific compounds, leading to false negative annotations.
Format: functional, Homo sapiens
Details: Compound Concentration 2 uM, Timepoint 12 hours, Culturing Media DMEM, 1 % Penicillin/Streptomycin, 10% Fetal bovin serum Add-On: No, Screening Media Control DMEM, Screening Media Samples DMEM
For each record, write down the corresponding autophagy induction.
Output spec: scalar in %, unitless text.

So what does the record say about autophagy induction for Cc1cn2cc(CC(=O)N3CCC4(CC3)CN(Cc3ccc(-n5nccn5)cc3Cl)C4)nc2s1 ? -4.678

Now give it for C[C@@H](NCCc1ccc(O)cc1)[C@@H](O)c1ccc(O)cc1.Cl (relative stereo) too. -7.529

Similarly, N#Cc1ccc(NC(=O)Nc2ccccc2Br)c2nn[nH]c12 ? 0.1454

// query: Cc1cc(C)cc(C(=O)N(C)[C@H](Cc2ccc(-c3ccccc3)cc2)C(=O)N[C@@H](Cc2c[nH]c3ccccc23)C(=O)O)c1 4.263

// repeat for COC1CCN(c2cccc(-c3cc(NC(C)=O)nc(-n4nc(C)cc4C)n3)n2)CC1 and report 5.065

Input O=C(Nc1ccc(Cl)cc1)Nc1cccc(-c2cccc(N3CCCC3)n2)c1 -0.4509

How about this molecule: CCCSc1nc(N[C@@H]2C[C@H]2c2ccc(F)c(F)c2)c2nnn([C@@H]3C[C@H](OCCO)[C@@H](O)[C@H]3O)c2n1 -5.583

Then C[C@H](Cc1cc2c(c(C(N)=O)c1)N(CCCO)CC2)NCCOc1ccccc1OCC(F)(F)F ? -7.096
